Provenance of the data: patent US7902252B2

# TARGET DESC: UniProtKB P14920
# Sequence (P14920 whole entry): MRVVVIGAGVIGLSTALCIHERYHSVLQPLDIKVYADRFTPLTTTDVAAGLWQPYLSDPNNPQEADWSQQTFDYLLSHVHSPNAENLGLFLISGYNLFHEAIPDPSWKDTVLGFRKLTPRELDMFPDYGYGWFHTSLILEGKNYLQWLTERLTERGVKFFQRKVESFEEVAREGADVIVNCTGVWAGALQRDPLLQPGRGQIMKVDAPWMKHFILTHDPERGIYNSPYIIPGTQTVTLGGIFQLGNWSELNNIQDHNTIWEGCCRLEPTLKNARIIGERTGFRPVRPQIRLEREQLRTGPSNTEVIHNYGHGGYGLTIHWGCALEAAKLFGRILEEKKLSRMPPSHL
# TEST DESCRIPTION: D-Amino Acid Oxidase enzyme assay (D-serine, horseradish peroxidase/Amplex Red coupled fluorescence)
# Assay type: biochemical
# STATED CONDITIONS: D-serine 5 mM, pH 7.4
Listing of recorded IC50 by entry.

stdin: // lookup IC50 for O=C(O)c1cc2c([nH]1)CCC2Cc1ccc(F)cc1 (racemic) [Compound 39]
stdout: ≤ 0.1 µM

stdin: // lookup IC50 for O=C(O)c1cc2c([nH]1)CCC2Cc1cccc(-c2ccc[nH]2)c1 (single isomer, unassigned) [Compound 92]
stdout: ≤ 100 µM

stdin: // lookup IC50 for O=C(O)c1cc2c([nH]1)CCC2c1ccc(Cc2ccccc2)cc1 (stereo not drawn)
stdout: ≤ 1 µM

stdin: // lookup IC50 for CC1CCc2cc(C(=O)O)[nH]c21 (stereo not drawn)
stdout: ≤ 1 µM

stdin: // lookup IC50 for O=C(O)c1cc2c([nH]1)C(=Cc1ccccc1)CC2 (mixture of isomers)
stdout: ≤ 100 µM

stdin: // lookup IC50 for O=C(O)c1cc2c([nH]1)C(Cc1cccc(O)c1)CC2 (stereo not drawn)
stdout: ≤ 0.1 µM

Further cases:
stdin: // lookup IC50 for Cc1ccc(C2CCc3[nH]c(C(=O)O)cc32)cc1 (stereo not drawn)
stdout: ≤ 1 µM

stdin: // lookup IC50 for Cc1cc(F)ccc1CC1CCc2[nH]c(C(=O)O)cc21 (single isomer, unassigned) [Compound 53]
stdout: ≤ 0.1 µM

stdin: // lookup IC50 for COc1cccc(CC2CCc3[nH]c(C(=O)O)cc32)c1 (racemic) [Compound 66]
stdout: ≤ 0.1 µM

stdin: // lookup IC50 for O=C(O)c1cc2c([nH]1)CCC2Cc1ccc(Cl)c(Cl)c1 (single isomer, unassigned) [Compound 59]
stdout: ≤ 0.1 µM

stdin: // lookup IC50 for O=C(O)c1cc2c([nH]1)CCC2Cc1ccc(F)c(F)c1 (single isomer, unassigned) [Compound 43]
stdout: ≤ 100 µM

stdin: // lookup IC50 for O=C(O)c1cc2c([nH]1)CCC2CC1CCCCC1 (stereo not drawn)
stdout: ≤ 1 µM

stdin: // lookup IC50 for O=C(O)c1cc2c([nH]1)CCC2Cc1cccc(F)c1 (stereo not drawn)
stdout: ≤ 0.1 µM

stdin: // lookup IC50 for O=C(O)c1cc2c([nH]1)CCC2Cc1cccc(-c2ccc[nH]2)c1 (racemic) [Compound 91]
stdout: ≤ 0.1 µM

stdin: // lookup IC50 for CC1CCc2[nH]c(C(=O)O)cc21 (single isomer, unassigned) [Compound 5]
stdout: ≤ 1 µM

stdin: // lookup IC50 for CCCC1CCc2cc(C(=O)O)[nH]c21 (stereo not drawn)
stdout: ≤ 1 µM

stdin: // lookup IC50 for O=C(O)c1cc2c([nH]1)CCC2c1ccc(-c2ccccc2)cc1 (stereo not drawn)
stdout: ≤ 100 µM

stdin: // lookup IC50 for O=C(O)c1cc2c([nH]1)CCC2c1cc(F)cc(F)c1 (single isomer, unassigned) [Compound 99]
stdout: ≤ 100 µM
